- Protocol summary: modulators of CIT2-GFP expression in yeast, confirmation, S. cerevisiae, GFP fusion, cherry picks, mother/daughter gates (AID 2274)
- Condition summary: S. cerevisiae CIT2-GFP strain, flow cytometry, 3 h; measured here: mother cell gate; at 10 µM; stronger effect = higher value
Value kind: GFP response, % of DMSO (%)
Supply the numeric figure in %, leaving out any unit text.

Previously resolved entries follow.
compound=O=C(NCCN1CCOCC1)c1ccc(CS(=O)(=O)Cc2ccccc2F)o1 readout_units=% value=110
compound="CC(=O)c1ccc(N2CCN(S(=O)(=O)c3ccc4c(c3)CC(C)N4C(C)=O)CC2)cc1 (configuration not stated)" readout_units=% value=103
compound=O=C(OCC(=O)N1CCN(C(=O)c2ccco2)CC1)c1cc(-c2ccccc2)nc2ccccc12 readout_units=% value=130
compound=NC(=O)COc1ccc(C(=O)/C=C2/C(=O)Nc3ccccc32)cc1 readout_units=% value=101
compound=Cc1ccc(Sc2ccc([N+](=O)[O-])cc2[N+](=O)[O-])nc1 readout_units=% value=105

Inquiry: Using the record for Cc1ccc2c(nc3s/c(=C\c4ccc(-c5ccccc5C(=O)O)o4)c(=O)n32)c1C , report its GFP response, % of DMSO.
Reply text: 154

Inquiry: Using the record for CC1CCCN(CCCNC(=O)C2CCN(S(=O)(=O)N3CCC4(CC3)OCCO4)CC2)C1 (configuration not stated) , report its GFP response, % of DMSO.
Reply text: 106

Inquiry: Using the record for COc1ccc(/C=N/Nc2nnc(C)n2N)cc1OC(C)=O , report its GFP response, % of DMSO.
Reply text: 103

----------
Parameter GFP response, % of DMSO: see the listing below.
- Protocol summary: modulators of CIT2-GFP expression in yeast, confirmation, S. cerevisiae, GFP fusion, cherry picks, mother/daughter gates (AID 2274)
- Condition summary: S. cerevisiae CIT2-GFP strain, flow cytometry, 3 h; at 10 µM; stronger effect = higher value
Supply the numeric figure in %, leaving out any unit text.

Previously resolved entries follow.
compound="O=S(=O)(c1ccccc1)N1N=C(c2cccs2)CC1c1ccc(F)cc1 (configuration not stated)" value_kind="GFP response, % of DMSO" value=97.8
compound=Cc1ccc(-c2nnc(NC(=O)c3ccc([N+](=O)[O-])o3)o2)c(C)c1 value_kind="GFP response, % of DMSO" value=95.8

Inquiry: Using the record for CN(CCCS(=O)(=O)[O-])c1ccc(/C=C/c2ccc3ccccc3[n+]2C)cc1 , report its GFP response, % of DMSO.
Reply text: 106

Inquiry: Using the record for Cc1cccn2c(=O)c(/C=C(\C#N)C(=O)NC3CCS(=O)(=O)C3)c(N3CCC(C(N)=O)CC3)nc12 (configuration not stated) , report its GFP response, % of DMSO.
Reply text: 97.3

Inquiry: Using the record for O=C1C2C3C=CC(CNS(=O)(=O)c4ccccc4)(O3)C2C(=O)N1c1ccc(Cl)cc1 (configuration not stated) , report its GFP response, % of DMSO.
Reply text: 111

----------
- Protocol summary: modulators of CIT2-GFP expression in yeast, confirmation, S. cerevisiae, GFP fusion, cherry picks, mother/daughter gates (AID 2274)
- Condition summary: S. cerevisiae CIT2-GFP strain, flow cytometry, 3 h; measured here: mother cell gate; at 10 µM; stronger effect = higher value
Parameter GFP response, % of DMSO: see the listing below.

Previously resolved entries follow.
molecule=Nc1cccc(C(=O)Nc2ccccc2Cl)c1 value_kind="GFP response, % of DMSO" value=101%
molecule=Cc1cc(C)nc(S/C=C/C(=O)c2ccccc2)n1 value_kind="GFP response, % of DMSO" value=83.8%
molecule=Cc1ccc(-c2csc(NC(=O)c3cccc([N+](=O)[O-])c3)n2)cc1 value_kind="GFP response, % of DMSO" value=93.2%
molecule="COCCCN1C(=O)C2C(C(=O)Nc3cc(C)cc(C)c3)C3C=CC2(O3)C1C(=O)NC1CCCCC1 (stereo not drawn)" value_kind="GFP response, % of DMSO" value=114%
molecule="CC(=O)Oc1ccc(N2C(=O)C3C4C=CC(CO)(O4)C3C2=O)cc1 (stereo not drawn)" value_kind="GFP response, % of DMSO" value=104%
molecule=CC(=O)Oc1oc(-c2ccccc2)nc1C=Nc1ccc(N(C)C)cc1 value_kind="GFP response, % of DMSO" value=92.3%
molecule=COC(CNC(=O)c1ccc2c3c(onc13)-c1ccccc1C2=O)OC value_kind="GFP response, % of DMSO" value=83.7%
molecule="O=C(/C=C/c1ccccc1)C1=C(O)C(=O)N(CCO)C1c1cccc([N+](=O)[O-])c1 (stereo not drawn)" value_kind="GFP response, % of DMSO" value=99.3%

Inquiry: Using the record for O=S(=O)(c1ccc(Oc2ccc(Br)cc2)cc1)N1CCOCC1 , report its GFP response, % of DMSO.
Reply text: 93.3%

Inquiry: Using the record for CCCCCCCCn1c(=O)c(C(=O)OCC)c(O)c2ccccc21 , report its GFP response, % of DMSO.
Reply text: 101%

Inquiry: Using the record for N#C/C(=C\c1ccc(N2CCOCC2)o1)c1ccccc1 , report its GFP response, % of DMSO.
Reply text: 103%

----------
Parameter GFP response vs DMSO: see the listing below.
- Protocol summary: RPL19A-GFP modulators, yeast TOR pathway, confirmation, cell-based, S. cerevisiae, flow cytometry, cherry picks, mother/daughter gates (AID 2270)
- Condition summary: S. cerevisiae RPL19A-GFP strain, 3 h, measured here: mother cell gate, at 10 µM, stronger effect = lower value, 100 = same GFP as DMSO wells
Supply the numeric figure in %, leaving out any unit text.

Previously resolved entries follow.
cpd_smiles=C=CCOc1ccc(/C=C2\N=C(C)OC2=O)cc1OC value=103
cpd_smiles=O=C(NNC(=S)NC(=O)C12CC3CC(CC(C3)C1)C2)c1ccncc1 value=106
cpd_smiles=COc1ccc(-c2nc(-c3ccccc3OC)no2)cc1OC value=98.6

Inquiry: Using the record for O=C(N/N=C/c1ccccc1Cl)c1cccc(F)c1 , report its GFP response vs DMSO.
Reply text: 99.8

Inquiry: Using the record for Cc1ccc(-c2nc(NC(=O)c3nn(C)cc3[N+](=O)[O-])sc2C)cc1C , report its GFP response vs DMSO.
Reply text: 102

Inquiry: Using the record for O=C(OCC(=O)N1CCN(C(=O)c2ccco2)CC1)c1cc(-c2ccc(F)cc2)nc2ccccc12 , report its GFP response vs DMSO.
Reply text: 74.5

----------
Parameter binding (% of control): see the listing below.
- Test system: anti-desmoglein-3 scFv antibody binding to human DSG3
- Protocol summary: inhibitors of anti-DSG3 scFv binding to DSG3, pilot screen, biochemical, validation compound set, bead-based, flow cytometry (AID 588368);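 also: signal is the median channel fluorescence of bead-bound GFP antibody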
- Condition summary: Protein G beads, DSG3-Fc, scFv-GFP binding, at 10 µM, stronger effect = lower value
Supply the numeric figure in %, leaving out any unit text.

Previously resolved entries follow.
compound=NC(=O)OCC(COC(N)=O)c1ccccc1 test_target="anti-desmoglein-3 scFv antibody binding to human DSG3" value_kind="binding (% of control)" value=103
compound=COc1ccc2nc(NC(=O)Nc3ccccc3)sc2c1 test_target="anti-desmoglein-3 scFv antibody binding to human DSG3" value_kind="binding (% of control)" value=95.7
compound=Cc1oc2ccc(OC(=O)c3cccs3)cc2c1C(=O)OC(C)C test_target="anti-desmoglein-3 scFv antibody binding to human DSG3" value_kind="binding (% of control)" value=105
compound=O=C1CCCCCN1Cc1ccccc1 test_target="anti-desmoglein-3 scFv antibody binding to human DSG3" value_kind="binding (% of control)" value=101
compound="COc1cccc(C2CCCN2Cc2nc(CCC(C)C)no2)c1 (stereo not drawn)" test_target="anti-desmoglein-3 scFv antibody binding to human DSG3" value_kind="binding (% of control)" value=104

Inquiry: Using the record for CC(C)(C)C(=O)NC(=S)Nc1sc2c(c1C(N)=O)CCC2 , report its binding (% of control).
Reply text: 96.6

Inquiry: Using the record for O=C1N[C@@H](Cc2cnc[nH]2)C(=O)N2CCC[C@@H]12 , report its binding (% of control).
Reply text: 100

Inquiry: Using the record for C[N+]12CCC(CC1)C(OC(=O)C(O)(c1ccccc1)c1ccccc1)C2 (stereo not drawn) , report its binding (% of control).
Reply text: 102

----------
Parameter GFP response relative to DMSO: see the listing below.
- Protocol summary: LAP4-GFP expression modulators in yeast, confirmation, cell-based, cherry picks, flow cytometry, mother/daughter gates (AID 2271);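 also: ratio of sample to DMSO plate mean so 100% equals DMSO level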
- Condition summary: S. cerevisiae LAP4-GFP strain, 3 h, measured here: daughter cell gate response, at 10 µM, stronger effect = higher value, 100 means same as DMSO control
Supply the numeric figure in %, leaving out any unit text.

Previously resolved entries follow.
cpd_smiles=Cc1ccc(NC(=O)COc2ccc(Br)cc2C)cc1 value_kind="GFP response relative to DMSO" readout_units=% value=102
cpd_smiles=CCN(CC)CCCN(C(=O)c1ccc(Br)cc1)c1nc(-c2ccc(OC)cc2)cs1 value_kind="GFP response relative to DMSO" readout_units=% value=99

Inquiry: Using the record for CCOC(=O)c1cnn(-c2cc(C)nc3c(-c4ccccc4)cnn23)c1N , report its GFP response relative to DMSO.
Reply text: 92.9

Inquiry: Using the record for Oc1ccc(/C=N/Nc2nc(-c3cccnc3)nc3ccccc23)c(O)c1 , report its GFP response relative to DMSO.
Reply text: 84.2

Inquiry: Using the record for Cc1ccccc1C(=O)Nc1cccc(C#N)c1 , report its GFP response relative to DMSO.
Reply text: 99

Inquiry: Using the record for Cc1ccc(C(=O)Oc2oc(-c3ccco3)nc2C=Nc2ccc(Cl)cc2)cc1 , report its GFP response relative to DMSO.
Reply text: 168

Inquiry: Using the record for O=C(OCc1cc(Cl)ccc1OC(F)F)c1ccc([N+](=O)[O-])o1 , report its GFP response relative to DMSO.
Reply text: 110

Inquiry: Using the record for N#C/C(=C\c1ccccn1)c1nc2ccccc2s1 , report its GFP response relative to DMSO.
Reply text: 464

Inquiry: Using the record for O=C(O)c1ccc(Sc2ccccn2)c([N+](=O)[O-])c1 , report its GFP response relative to DMSO.
Reply text: 97.6

Inquiry: Using the record for Cc1nn2c(N3CCCC3)cc(C(C)C)nc2c1-c1ccccc1 , report its GFP response relative to DMSO.
Reply text: 97.5

Inquiry: Using the record for O=C(O)c1ccccc1C(=O)N1CCN(c2ccccc2)CC1 , report its GFP response relative to DMSO.
Reply text: 96
